Listed next: entries and their corresponding pIC50.
- measurementTarget: human full-length MKNK1 (Homo sapiens, UniProt Q9BUB5, T385D)
- Construct: GST (N)
- Sequence (Q9BUB5 1-424 isoform Q9BUB5-2 T344D): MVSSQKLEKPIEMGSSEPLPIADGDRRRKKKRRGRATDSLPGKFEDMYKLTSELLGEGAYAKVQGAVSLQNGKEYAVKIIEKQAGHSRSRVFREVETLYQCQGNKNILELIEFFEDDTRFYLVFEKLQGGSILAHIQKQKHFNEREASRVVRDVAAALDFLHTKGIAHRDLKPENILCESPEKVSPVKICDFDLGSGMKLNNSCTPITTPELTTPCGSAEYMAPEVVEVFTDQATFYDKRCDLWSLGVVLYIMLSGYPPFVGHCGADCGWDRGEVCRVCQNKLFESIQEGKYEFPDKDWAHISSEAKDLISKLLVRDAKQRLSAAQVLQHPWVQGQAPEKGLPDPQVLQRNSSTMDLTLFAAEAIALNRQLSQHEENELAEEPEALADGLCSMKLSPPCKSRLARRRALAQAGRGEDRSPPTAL
- assaySummary: MKNK1 kinase high ATP assay (TR-FRET)
- experimentalConditions: high ATP (2 mM), after preincubation with MKNK1; compounds of the present invention (Table 1a)
Convention used: pIC50 is expressed as -log10 of the molar concentration.

Illustrative cases are given below, each with its answer.
NCC1CCc2c(sc3ncnc(Nc4ccc5[nH]ncc5c4)c23)C1 (racemic) [Example 7]: 6.81
CC[C@]1(C(=O)N2CCC2)CCc2c(sc3ncnc(Nc4cc5cn[nH]c5cc4OC)c23)C1 [Example 69]: 8.47

Here is another compound to look at.
Q. What value of measured pIC50 is listed for CC(C)C(=O)NCC1CCc2c(sc3ncnc(Nc4ccc5[nH]ncc5c4)c23)C1 (racemic) [Example 10] ?
A. 7.96

Source: patent US20160159816A1
